B1: ZNF449 (parent)
chain: HKKKSPGEKPHRCPQCGKCFARKS

# Variants of: B1
# Assay overview: protein stability index of a GFP-peptide fusion (GPS, HEK-293T) (PSI 1-6); higher = more stable;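 note: lentivirally expressed fusions sorted by FACS into six bins by GFP to DsRed ratio, PSI derived from sequencing read proportions per bin multiplied by bin number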
# Condition set: c terminus: a fixed tail appended
Kindly supply the reported protein stability index values for the records listed here.
Number only, please.

// field: protein stability index; key: F20D ; value = 4.04

C16P has a reported protein stability index of 4.48

Recorded result, K18L , protein stability index: 3.13

Looking up K18W , I found its protein stability index recorded as 2.5

The recorded protein stability index for P10E is 3.52

// K2S : protein stability index value = 3.19

Reported protein stability index of H11K : 3.28

// field: protein stability index; key: K18D ; value = 2.17

P10I has a reported protein stability index of 3.58

Form field protein stability index, entry K9W : 3.66

C16Q yielded protein stability index of 4.18
